- testedTarget: wild-type Androgen Receptor (AR-wt) (Homo sapiens (Human))
- assayInfo: LNCaP-AR-wt ANT reporter assay (antagonist mode)
- Format: cell-based
- experimentalContext: maximum % inhibition of R1881 control response over the tested concentration range; read-out: LNCaP-AR-wt ANT MAX % Inh
metricName: Emax

Using known records, supply Emax for N#Cc1ncc(N2C(=O)C3(CCC3)N(c3ccc(OC4C5CCC4CNC5)cc3)C2=S)cc1C(F)(F)F (stereo not shown) [Cpd 138] 103%

Give the value of Emax reported for the following: N#Cc1ncc(N2C(=O)C3(CCC3)N(c3ccc(OC4CCSCC4)cc3)C2=S)cc1C(F)(F)F [Cpd 12] 101%

Report measured Emax; entry is N#Cc1ncc(N2C(=O)C3(CCC3)N(c3ccc(OCC4CC(F)(F)CN4)cc3)C2=S)cc1C(F)(F)F (stereo not shown) [Cpd 54] 101%

Quickly give me recorded Emax for CC(C)(C)OC(=O)N1CCN(C(=O)c2ccc(N3C(=S)N(c4cnc(C#N)c(C(F)(F)F)c4)C(=O)C34CCC4)cc2)CC1 [Cpd 32] 64.9%

* * *

- testedTarget: F876L-VP16 (Homo sapiens (Human), UniProt P10275, F877L)
- Sequence (P10275 whole entry F877L): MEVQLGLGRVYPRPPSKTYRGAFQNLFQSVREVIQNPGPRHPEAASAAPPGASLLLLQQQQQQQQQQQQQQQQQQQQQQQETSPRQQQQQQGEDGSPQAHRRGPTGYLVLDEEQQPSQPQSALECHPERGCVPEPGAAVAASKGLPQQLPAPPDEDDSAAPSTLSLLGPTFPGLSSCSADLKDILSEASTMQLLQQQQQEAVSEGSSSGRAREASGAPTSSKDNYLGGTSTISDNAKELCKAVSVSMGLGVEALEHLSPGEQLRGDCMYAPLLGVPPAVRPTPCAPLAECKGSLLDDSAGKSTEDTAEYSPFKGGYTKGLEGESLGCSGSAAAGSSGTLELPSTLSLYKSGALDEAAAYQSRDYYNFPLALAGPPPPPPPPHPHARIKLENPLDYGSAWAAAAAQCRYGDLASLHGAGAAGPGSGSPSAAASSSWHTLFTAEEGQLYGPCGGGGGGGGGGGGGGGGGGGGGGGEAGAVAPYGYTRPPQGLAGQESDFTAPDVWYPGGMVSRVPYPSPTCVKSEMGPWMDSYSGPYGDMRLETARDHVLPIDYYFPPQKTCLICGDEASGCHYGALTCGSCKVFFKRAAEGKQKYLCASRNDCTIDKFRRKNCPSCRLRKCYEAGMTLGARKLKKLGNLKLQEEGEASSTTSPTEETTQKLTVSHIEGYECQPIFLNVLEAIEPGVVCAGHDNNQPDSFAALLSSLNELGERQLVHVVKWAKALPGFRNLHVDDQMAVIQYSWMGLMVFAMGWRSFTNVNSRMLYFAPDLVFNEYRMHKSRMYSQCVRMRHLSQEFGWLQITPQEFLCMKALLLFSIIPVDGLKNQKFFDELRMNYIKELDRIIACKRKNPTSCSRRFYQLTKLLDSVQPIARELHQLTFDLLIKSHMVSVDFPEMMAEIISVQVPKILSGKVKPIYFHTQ
- assayInfo: AR-VP16 DNA Binding Assay (VP16 F876L)
- experimentalContext: HepG2, antagonist mode, 1 nM R1881, 48 hours
metricName: IC50 (nM)
Respond numerically; units are nM and should not be typed.

Tell us which IC50 value is on record for "N#Cc1ncc(N2C(=O)C3(CCC3)N(c3ccc(OC4CCNCC4)nc3)C2=S)cc1C(F)(F)F" 15

* * *

- testedTarget: wild-type Androgen Receptor (AR-wt) (Homo sapiens (Human))
- assayInfo: LNCaP-AR-wt ANT reporter assay (antagonist mode)
- Assay type: cell-based
- experimentalContext: antagonist mode; pIC50 = −Log10(IC50 in Molar); read-out: LNCaP-AR-wt ANT pIC50 (converted)
Would you kindly list IC50 for each of these compounds?
The reply should contain only the number, in nM.

State its IC50: N#Cc1ncc(N2C(=O)C3(CCC3)N(c3ccc(OC4CCN(CCO)CC4)cc3)C2=S)cc1Cl [Cpd 50] 16.2

Could you please provide reported IC50 for N#Cc1ncc(N2C(=O)C3(CCC3)N(c3ccc(OC4CCN5CCCC5C4)cc3)C2=S)cc1C(F)(F)F (stereo not drawn) [Cpd 156] ? Thanks! 282

Supply IC50 value. Item: COCCN1CCC(Oc2ccc(N3C(=S)N(c4cnc(C#N)c(C)c4)C(=O)C34CCC4)cc2)CC1 [Cpd 37] 1260

Report IC50, nothing else, for this compound: CNC(=O)N1CCC(CNC(=O)c2ccc(N3C(=S)N(c4cnc(C#N)c(C(F)(F)F)c4)C(=O)C34CCC4)cc2)CC1 [Cpd 73] 501

Report IC50 for COCCN1CCC(Oc2ccc(N3C(=S)N(c4cnc(C#N)c(C)c4)C(=O)C34CCC4)cn2)CC1 [Cpd 98] 46.8

Provide measured IC50 value, entry: CN1CCC(Oc2ccc(N3C(=S)N(c4cnc(C#N)c(C(F)(F)F)c4)C(=O)C34CCC4)cn2)CC12CCC2 (racemic) [Cpd 194] 155

* * *

Could you please report measured LNCaP-AR-wt ANT pIC50 for the items listed next?
- testedTarget: wild-type Androgen Receptor (AR-wt) (Homo sapiens (Human), UniProt P10275)
- Sequence (P10275 whole entry): as the sequence (P10275 whole entry F877L) above, with L877F counted along it
- assayInfo: LNCaP-AR-wt ANT reporter assay (antagonist mode)
- Format: cell-based
- experimentalContext: antagonist mode; pIC50 = −Log10(IC50 in Molar)
API doc: respond with a numeric literal and nothing else, no unit.

Dear colleague, please send me the reported LNCaP-AR-wt ANT pIC50 for "CN1CCC(Oc2ccc(N3C(=S)N(c4cnc(C#N)c(C(F)(F)F)c4)C(=O)C34CCC4)cn2)CC1" when you can. 6.94

Input "N#Cc1ncc(N2C(=O)C3(CCC3)N(c3ccc(CN4CCNCC4)cc3)C2=S)cc1C(F)(F)F" , output reported LNCaP-AR-wt ANT pIC50. 6.45

# return recorded LNCaP-AR-wt ANT pIC50 for entry "Cc1cc(N2C(=O)C3(CCC3)N(c3ccc(OC4CCNCC4)nc3)C2=S)cnc1C#N" 6.92

State its LNCaP-AR-wt ANT pIC50 for this compound: CC(C)(C)OC(=O)N1C2CCC1CC(c1ccc(N3C(=S)N(c4cnc(C#N)c(C(F)(F)F)c4)C(=O)C34CCC4)cc1)C2 (stereo not shown) 6.35

Read the entry "COc1cc(N2C(=O)C3(CCC3)N(c3ccc(OC4CCN(C)CC4)cc3)C2=S)cnc1C#N" and write its reported LNCaP-AR-wt ANT pIC50. 6.52

Return LNCaP-AR-wt ANT pIC50 for the following compound: "CN1[C@@H]2CC[C@H]1C[C@H](Oc1ccc(N3C(=S)N(c4cnc(C#N)c(C(F)(F)F)c4)C(=O)C34CCC4)cc1)C2" 6.76

Report measured LNCaP-AR-wt ANT pIC50; entry is CC(C)(C)OC(=O)N1C2CCC1C(F)C(Oc1ccc(N3C(=S)N(c4cnc(C#N)c(C(F)(F)F)c4)C(=O)C34CCC4)cc1)C2 (stereo not shown) 6.46
